Molecular target: Peregrin (Homo sapiens, UniProt P55201)
Sequence (P55201 whole entry): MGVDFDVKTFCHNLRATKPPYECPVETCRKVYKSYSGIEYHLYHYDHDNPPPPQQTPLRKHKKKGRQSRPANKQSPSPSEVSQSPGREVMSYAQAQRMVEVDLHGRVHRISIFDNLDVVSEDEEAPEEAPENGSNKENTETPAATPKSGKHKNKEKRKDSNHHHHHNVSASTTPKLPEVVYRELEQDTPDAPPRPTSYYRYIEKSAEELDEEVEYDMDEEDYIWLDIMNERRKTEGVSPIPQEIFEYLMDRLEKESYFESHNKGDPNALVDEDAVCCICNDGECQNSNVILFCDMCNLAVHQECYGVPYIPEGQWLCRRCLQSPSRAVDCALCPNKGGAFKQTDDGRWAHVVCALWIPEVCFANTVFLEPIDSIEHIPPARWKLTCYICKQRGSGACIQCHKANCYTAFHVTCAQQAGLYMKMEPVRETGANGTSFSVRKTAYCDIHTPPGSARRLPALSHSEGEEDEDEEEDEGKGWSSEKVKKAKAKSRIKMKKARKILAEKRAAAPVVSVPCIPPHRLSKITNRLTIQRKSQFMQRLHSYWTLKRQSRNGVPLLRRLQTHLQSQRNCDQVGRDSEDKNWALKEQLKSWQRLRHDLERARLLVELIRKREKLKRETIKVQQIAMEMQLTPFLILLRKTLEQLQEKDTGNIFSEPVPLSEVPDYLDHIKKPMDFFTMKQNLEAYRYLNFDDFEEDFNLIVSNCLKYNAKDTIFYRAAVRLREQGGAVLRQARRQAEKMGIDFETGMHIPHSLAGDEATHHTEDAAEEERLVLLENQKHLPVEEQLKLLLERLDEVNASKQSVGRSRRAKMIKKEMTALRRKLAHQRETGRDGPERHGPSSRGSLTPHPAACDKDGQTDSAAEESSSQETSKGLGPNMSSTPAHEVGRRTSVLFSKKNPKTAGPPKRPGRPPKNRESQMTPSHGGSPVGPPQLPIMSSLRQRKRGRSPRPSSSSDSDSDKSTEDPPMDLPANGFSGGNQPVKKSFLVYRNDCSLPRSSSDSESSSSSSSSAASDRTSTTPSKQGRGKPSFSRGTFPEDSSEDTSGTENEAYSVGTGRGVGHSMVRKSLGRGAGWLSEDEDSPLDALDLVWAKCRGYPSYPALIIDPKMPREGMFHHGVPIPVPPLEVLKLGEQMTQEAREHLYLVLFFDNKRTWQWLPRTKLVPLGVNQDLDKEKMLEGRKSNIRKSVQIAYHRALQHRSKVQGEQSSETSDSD
ASSAY READOUT: pIC50
Please treat pIC50 as minus the base-10 logarithm of the molar concentration.

-- ask System Peregrin (Homo sapiens, UniProt P55201). Read-out pIC50. Item COc1cc(C#N)ccc1S(=O)(=O)Nc1ccc2c(c1)cc(C)c(=O)n2C . Report value.
-- reply 7.33
